Target: UniProt Q8NB78
Sequence (Q8NB78 whole entry): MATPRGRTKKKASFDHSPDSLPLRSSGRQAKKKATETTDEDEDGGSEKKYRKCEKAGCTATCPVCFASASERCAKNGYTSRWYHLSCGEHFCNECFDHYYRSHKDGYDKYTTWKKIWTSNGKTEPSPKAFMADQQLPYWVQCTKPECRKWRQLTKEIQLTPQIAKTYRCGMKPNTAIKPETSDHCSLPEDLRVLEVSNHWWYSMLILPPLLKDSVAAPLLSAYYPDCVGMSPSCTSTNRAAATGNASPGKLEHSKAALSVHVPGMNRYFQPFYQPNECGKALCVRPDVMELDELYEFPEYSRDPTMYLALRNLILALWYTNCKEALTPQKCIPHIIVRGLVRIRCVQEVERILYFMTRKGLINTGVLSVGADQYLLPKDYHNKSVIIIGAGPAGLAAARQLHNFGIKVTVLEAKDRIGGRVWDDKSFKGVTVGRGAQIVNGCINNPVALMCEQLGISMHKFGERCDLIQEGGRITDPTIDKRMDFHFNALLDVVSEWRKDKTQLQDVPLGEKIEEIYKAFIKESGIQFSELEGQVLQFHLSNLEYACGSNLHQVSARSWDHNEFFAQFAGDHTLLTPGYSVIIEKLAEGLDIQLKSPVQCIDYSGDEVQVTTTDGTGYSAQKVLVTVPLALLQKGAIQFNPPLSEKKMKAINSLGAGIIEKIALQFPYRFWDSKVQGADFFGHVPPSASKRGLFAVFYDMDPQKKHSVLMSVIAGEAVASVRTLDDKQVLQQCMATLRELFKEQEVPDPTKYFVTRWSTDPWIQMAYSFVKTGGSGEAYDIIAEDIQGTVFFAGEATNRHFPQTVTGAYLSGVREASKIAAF
Test: Inhibition of human LSD2
outcome measure: IC50

# input molecule: O=C(O)c1ccc(CN2CCC(CN[C@@H]3C[C@H]3c3ccccc3)CC2)cc1 ; wanted: its IC50
> 100 µM

====

Molecular target: Amine oxidase [flavin-containing] B (Homo sapiens)
Sequence (P27338 whole entry): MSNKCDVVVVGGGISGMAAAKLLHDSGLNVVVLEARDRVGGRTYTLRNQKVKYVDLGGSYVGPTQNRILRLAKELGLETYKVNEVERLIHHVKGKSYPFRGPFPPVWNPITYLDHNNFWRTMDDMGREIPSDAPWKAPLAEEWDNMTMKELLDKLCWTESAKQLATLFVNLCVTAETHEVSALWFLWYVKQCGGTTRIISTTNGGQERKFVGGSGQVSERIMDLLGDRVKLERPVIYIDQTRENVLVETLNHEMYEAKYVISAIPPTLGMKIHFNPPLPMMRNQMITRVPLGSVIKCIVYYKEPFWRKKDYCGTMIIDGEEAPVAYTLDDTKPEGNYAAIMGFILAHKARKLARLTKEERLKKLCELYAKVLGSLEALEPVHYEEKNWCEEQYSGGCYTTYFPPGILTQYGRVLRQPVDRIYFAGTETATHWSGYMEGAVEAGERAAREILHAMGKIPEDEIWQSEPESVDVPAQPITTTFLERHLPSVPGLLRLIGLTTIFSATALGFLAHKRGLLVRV
Assay: Inhibition of human MAOB
pIC50: −log10 of the molar value.
outcome measure: pIC50

Find the recorded pIC50 belonging to O=C(O)c1ccc(CN2CCC(CN[C@@H]3C[C@H]3c3ccccc3)CC2)cc1 [GSK2879552] and report it.
< 4.00

Each recorded value in this set is attributed to ChEMBL document CHEMBL5154758.
